Tested on: p246F10 viral strain (C-R5)
measurement.notes: microbe, parasite or virus in culture
Assay type: cell-based, HIV
test.context: Human immunodeficiency virus 1, TZM-bl, 48 h, read-out: EC50, viral strain p246F10
measurement.label: EC50 (nM)
Expressed in nM, but write only the number.

Consider the compound shown here: Cc1cc(C)c(Nc2ccnc(Nc3ccc(C#N)cc3)n2)c(C)c1 What is its recorded EC50?
1.4

###

Tested on: SHIV162p3 viral strain (B-R5)
measurement.notes: Antiviral activity on TZM-bl cells, SHIV162p3 strain
Assay type: cell-based
test.context: luciferase, 48 h, clade-tropism B-R5
pEC50: −log10 of the molar value.
measurement.label: pEC50

Dear colleague, I am looking for the recorded pEC50 of the following molecule: Cc1cc(C)c(Nc2ccnc(Nc3ccc(C#N)cc3)n2)c(C)c1
< 6.00

###

measurement.notes: Cytotoxic activity, WST-1 cell proliferation assay
Format: cell-based
test.context: human
measurement.label: CC50 at 48 h (µM)
Give the value in µM but do not write µM after it.

What measured CC50 at 48 h goes with Cc1cc(C)c(Nc2ccnc(Nc3ccc(C#N)cc3)n2)c(C)c1 ?
2.52

###

Test system: IIIB viral strain (B-X4)
measurement.notes: microbe, parasite or virus in culture
Format: cell-based, HIV
test.context: Human immunodeficiency virus 1, IIIB; TZM-bl cells, luciferase, 48 h; clade-tropism B-X4
Experimental: The antiviral activity of the tested compounds was determined by pre-incubating 10^4 TZM-bl cells/well in a 96-well plate for 30 min at 37° C. and 5% CO2 with or without a serial dilution of the compound. Next, 200 TCID50 of viruses were added to each well and cultures were incubated for 48 h before luciferase activity was quantified. […] Antiviral activity was expressed as the percentage of viral inhibition compared to the untreated control and plotted against the compound concentration. […]
measurement.label: EC50
Remember to quote the unit after the number.

# lookup: EC50 of Cc1cc(C)c(Nc2ccnc(Nc3ccc(C#N)cc3)n2)c(C)c1
0.84 nM
